These measurements were taken from patent US4136186A.

# Tested on: collagen-induced blood-platelet aggregation
# ASSAY_PROCEDURE: Collagen-induced blood-platelet aggregation (plasma of orally treated rats)
# Type: in vivo, rats of Wistar strain
# CONDITION_NOTES: Rattus norvegicus, oral 100 mg/kg, 3 hours after treatment, collagen (bovine tendon extract), read-out: Percent inhibition of blood-platelet aggregation, Collagen
Listed next: entries and their corresponding inhibition in vivo at 100 mg/kg.
QUANTITY_KIND: inhibition in vivo at 100 mg/kg (%)

>  <COMPOUND>
CCOC(=O)c1sc2c(c1O)CN(C(=O)OCC)CC2 [Derivative n°11]

>  <VALUE_REPORTED>
91

$$$$
>  <COMPOUND>
CCOC(=O)c1sc2c(c1O)CN(Cc1ccccc1)CC2.Cl [Derivative n°4, hydrochloride]

>  <VALUE_REPORTED>
95.2

$$$$
>  <COMPOUND>
COC(=O)c1sc2c(c1O)CN(Cc1ccccc1Cl)CC2 [Derivative n°5]

>  <VALUE_REPORTED>
96.7

$$$$
>  <COMPOUND>
COC(=O)c1sc2c(c1O)CNCC2 [Derivative n°8]

>  <VALUE_REPORTED>
94.3

$$$$
>  <COMPOUND>
CCOC(=O)c1sc2c(c1O)CN(C(=O)c1ccccc1)CC2 [Derivative n°2]

>  <VALUE_REPORTED>
94.6

$$$$
